Target: T1, human TrkB monomer (His ECD) (human, UniProt Q16620 32-430)
T1 construct: extracellular domain; amine-coupled to the chip
T1 sequence (Q16620 32-430): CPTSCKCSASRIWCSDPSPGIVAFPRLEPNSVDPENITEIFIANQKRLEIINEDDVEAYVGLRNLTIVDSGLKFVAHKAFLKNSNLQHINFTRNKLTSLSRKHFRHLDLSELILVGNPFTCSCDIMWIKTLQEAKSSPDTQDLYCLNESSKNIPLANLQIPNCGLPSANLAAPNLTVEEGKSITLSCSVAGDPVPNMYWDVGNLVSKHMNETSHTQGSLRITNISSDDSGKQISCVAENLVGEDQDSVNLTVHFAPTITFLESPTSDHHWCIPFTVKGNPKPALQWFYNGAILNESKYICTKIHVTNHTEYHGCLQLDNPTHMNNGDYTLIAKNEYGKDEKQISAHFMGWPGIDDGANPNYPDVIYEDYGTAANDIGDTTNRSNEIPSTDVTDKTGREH
Assay: SPR (Biacore), Fab over amine-coupled TrkB His ECD monomer, 25 C
MEASUREMENT KIND: Kd (nM)

- BINDER: "C2 (Fab, V domains shown, Fab) VH: QVQLVQSGAEVKKPGASVKVSCKASGYTFTNYDIIWVRQAPGQGLEWMGYINPYNDGTKYNEKFKGRVTMTRDTSTSTVYMELSSLRSEDTAVYYCARLLKYRRFRYYAIDYWGQGTTVTVSS VL: DIQMTQSPSSLSASVGDRVTITCRTSENVYSNLAWYQQKPGKAPKLLIYAASNLQSGVPSRFSGSGSGTDYTFTISSLQPEDIATYYCQHFWGSPFTFGQGTKLEIK"
  MEASUREMENT KIND: "Kd"
  DATA VALUE: 2.54
- BINDER: "A2 (Fab, V domains shown, Fab) VH: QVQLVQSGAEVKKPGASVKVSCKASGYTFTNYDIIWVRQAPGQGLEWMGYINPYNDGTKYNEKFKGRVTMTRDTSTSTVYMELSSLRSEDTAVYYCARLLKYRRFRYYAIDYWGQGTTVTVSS VL: DIQMTQSPSSLSASVGDRVTITCRASENVYSNLAWYQQKPGKAPKLLIYAASNLQSGVPSRFSGSGSGTDYTFTISSLQPEDIATYYCQHFWYSPWTFGQGTKLEIK"
  MEASUREMENT KIND: "Kd"
  DATA VALUE: 1.08
- BINDER: "4A6 (Fab, V domains shown, Fab) VH: QVQLVQSGAEVKKPGASVKVSCKASGYTFTNYDIIWVRQAPGQGLEWMGYINPYNRRREYNEKFKGRVTMTRDTSTSTVYMELSSLRSEDTAVYYCARLLKYRRFRYYAIDYWGQGTTVTVSS VL: DIQMTQSPSSLSASVGDRVTITCHASENVYSNLAWYQQKPGKAPKLLIYAASNLQSGVPSRFSGSGSGTDYTFTISSLQPEDIATYYCQHFWGSPFTFGQGTKLEIK"
  MEASUREMENT KIND: "Kd"
  DATA VALUE: 0.18
- BINDER: "4B12 (Fab, V domains shown, Fab) VH: QVQLVQSGAEVKKPGASVKVSCKASGYTFTNYDIIWVRQAPGQGLEWMGYINPYNGRREYNEKFKGRVTMTRDTSTSTVYMELSSLRSEDTAVYYCARLLKYRRFRYYAIDYWGQGTTVTVSS VL: DIQMTQSPSSLSASVGDRVTITCRASEPVYSNVAWYQQKPGKAPKLLIYAASNLQSGVPSRFSGSGSGTDYTFTISSLQPEDIATYYCQHFWGSPFTFGQGTKLEIK"
  MEASUREMENT KIND: "Kd"
  DATA VALUE: 0.21
